B1: PPP2R2B (parent)
chain: RNTKRDVTLEASRENSKPRAILKP

# Variants of: B1
# Measurement protocol: protein stability index of a GFP-peptide fusion (GPS, HEK-293T) (PSI 1-6); higher = more stable;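 also: lentivirally expressed fusions sorted by FACS into six bins by GFP to DsRed ratio, PSI derived from sequencing read proportions per bin multiplied by bin number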
# Condition: c terminus: a fixed tail appended
# protein stability index per record follows
Give the value as a plain number.

Recorded protein stability index, per entry:
Mutation string | protein stability index
P24L | 4
P24V | 4

I have this variant here, `S12C` , and I need its recorded protein stability index.
3.95

What would you report for `A20F` ?
4.03

Numbers sourced from the supplement of paper PMC10567573.
